- Assay name: Cmax in Sprague-Dawley rat at 8 mg/kg, po
- Type: ADME, organism-based
- Parameters: route oral, dose 8 mg/kg
- Test conditions: in vivo
Property: Cmax (ng/mL)

| Structure smiles | Property | Quantity unit | Measured |
| --- | --- | --- | --- |
| CCc1nc(-c2ccc3c(c2)CC[C@H]3NC(=O)c2cnn(C)c2)no1 | Cmax | ng/mL | 8440 |

---

- Assay name: Plasma protein binding in rat assessed as unbound fraction
- Type: ADME, cell-free
Below, each entry is listed with its recorded fraction unbound.
Property: fraction unbound

| Structure smiles | Property | Measured |
| --- | --- | --- |
| Cn1cc(C(=O)N[C@@H]2CCc3cc(-c4noc(C5CC5)n4)ccc32)cn1 | fraction unbound | 0.042 |
| CCc1nc(-c2ccc3c(c2)CC[C@H]3NC(=O)c2cc(C)ncn2)no1 | fraction unbound | 0.046 |
| CC(C)c1nc(-c2ccc3c(c2)CC[C@H]3NC(=O)c2nnn(C)n2)no1 | fraction unbound | 0.089 |
| Cc1nc(-c2ccc3c(c2)CC[C@H]3NC(=O)c2cnn(C)c2)no1 | fraction unbound | 0.065 |
| CCc1nc(-c2ccc3c(c2)CC[C@H]3NC(=O)c2ocnc2C)no1 | fraction unbound | 0.051 |
| Cn1nnc(C(=O)N[C@@H]2CCc3cc(-c4noc(C5CC5)n4)ccc32)n1 | fraction unbound | 0.077 |
| CCc1nc(-c2ccc3c(c2)CC[C@H]3NC(=O)c2cnc(C)o2)no1 | fraction unbound | 0.046 |
| CCc1nc(-c2ccc3c(c2)CC[C@H]3NC(=O)c2nnn(C)n2)no1 | fraction unbound | 0.11 |
| CCc1nc(-c2ccc3c(c2)CC[C@H]3NC(=O)c2ccnc(C)c2)no1 | fraction unbound | 0.021 |
| COCc1nc(-c2ccc3c(c2)CC[C@H]3NC(=O)c2cnn(C)c2)no1 | fraction unbound | 0.082 |

---

- Species: Bos taurus
- Assay name: Inhibition of full-length myosin ATPase activity in bovine cardiac myofibrils
- Format: subcellular
- Test conditions: Heart, Myofibril

| Structure smiles | IC15 |
| --- | --- |
| CCc1nc(-c2ccc3c(c2)CCN3C(=O)Nc2ccccc2)no1 | > 39 µM |
| CCc1nc(-c2ccc3c(c2)CCN3C(=O)COc2ccccc2)no1 | 0.9 µM |
| CCc1nc(-c2ccc3c(c2)CCN3C(=O)CCc2ccccc2)no1 | > 39 µM |
| CCc1nc(-c2ccc3c(c2)CCN3C(=O)CSc2ccccc2)no1 | > 39 µM |
| CCc1nc(-c2ccc3c(c2)CCN3C(=O)NCc2ccccc2)no1 | > 39 µM |
| CCc1nc(-c2ccc3c(c2)CCN3C(=O)c2ccccc2)no1 | > 39 µM |
